# Tested on: E. coli NB27273-CDY0026 (parent)
# Test protocol: MIC by broth microdilution, isogenic E. coli parent strain
# Assay type: cell-based
# Measurement parameters: Escherichia coli, read-out: Strain 1 MIC
Parameter measured: MIC

{"Compound": "Nc1nc(/C(=N/OC2(C(=O)O)CC2)C(=O)N[C@@H]2C(=O)N(S(=O)(=O)O)[C@@H]2CN2CCOC2=O)cs1 [Example 22]", "Value": "≤ 0.06 µg/mL"}
{"Compound": "CC1(C)[C@H](NC(=O)/C(=N\\O[C@@H](COc2ccc(C(=N)NC3CCNCC3)cc2)C(=O)O)c2csc(N)n2)C(=O)N1OS(=O)(=O)O [compound 4, reference compound]", "Value": "≤ 0.06 µg/mL"}
{"Compound": "N=C(N)NCc1cn(C[C@@H]2[C@H](NC(=O)/C(=N\\OC3(C(=O)O)CC3)c3csc(N)n3)C(=O)N2S(=O)(=O)O)nn1 [Example 28]", "Value": "≤ 0.06 µg/mL"}
